target: bovine intestinal alkaline phosphatase (Bos taurus (Bovine)); assay: BiALP: conversion by bovine intestinal alkaline phosphatase; assay type: in vitro ADME; conditions: 2 μM substrate, 100 ng/mL iALP, Tris pH 7.8, 37° C., 60 minutes
Sequence (P19111 20-506): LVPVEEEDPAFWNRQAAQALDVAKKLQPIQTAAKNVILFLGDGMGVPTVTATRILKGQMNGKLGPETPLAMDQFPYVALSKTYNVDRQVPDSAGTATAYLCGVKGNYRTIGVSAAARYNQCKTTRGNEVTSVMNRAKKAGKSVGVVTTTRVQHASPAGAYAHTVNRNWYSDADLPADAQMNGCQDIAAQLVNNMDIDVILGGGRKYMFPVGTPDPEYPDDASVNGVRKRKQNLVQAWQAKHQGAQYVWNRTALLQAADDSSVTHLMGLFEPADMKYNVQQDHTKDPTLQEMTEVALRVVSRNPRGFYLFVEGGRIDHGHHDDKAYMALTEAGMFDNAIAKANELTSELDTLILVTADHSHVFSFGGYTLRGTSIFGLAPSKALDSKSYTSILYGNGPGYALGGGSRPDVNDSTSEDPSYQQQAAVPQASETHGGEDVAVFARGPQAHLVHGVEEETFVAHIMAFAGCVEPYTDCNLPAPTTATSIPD
recorded-endpoint: [Compound] (nM)

>>> recorded_measurement("COC(=O)N[C@H](C(=O)N[C@@H](Cc1ccc(C#Cc2cnc(N3CC4CCC(C3)N4C3COC3)nc2)cc1)[C@H](CN(Cc1c(F)cc(-c2ccn(C(F)F)n2)cc1F)NC(=O)[C@@H](NC(=O)OC)C(C)(C)C(F)(F)F)OC(=O)OCOC(=O)CC(C)(C)c1c(OP(=O)(O)O)cc(C(=O)O)cc1C(=O)O)C(C)(C)C(F)(F)F")
1318.1
>>> recorded_measurement("COC(=O)N[C@H](C(=O)N[C@@H](Cc1ccc(C#Cc2cnc(N3CC4CCC(C3)N4C3COC3)nc2)cc1)[C@H](CN(Cc1c(F)cc(-c2ccn(C(F)F)n2)cc1F)NC(=O)[C@@H](NC(=O)OC)C(C)(C)C(F)(F)F)OC(=O)CC(C)(C)c1c(CC(=O)Nc2cc(C#N)cc(C(=O)O)c2)cc(C)cc1OP(=O)(O)O)C(C)(C)C(F)(F)F")
1778.4
>>> recorded_measurement("COC(=O)N[C@H](C(=O)N[C@@H](Cc1ccc(C#Cc2cnc(N3CC4CCC(C3)N4C3COC3)nc2)cc1)[C@H](CN(Cc1c(F)cc(-c2ccn(C(F)F)n2)cc1F)NC(=O)[C@@H](NC(=O)OC)C(C)(C)C(F)(F)F)OC(=O)CC(C)(C)c1c(CC(=O)N[C@@H](CCC(=O)O)C(=O)O)cc(C)cc1OP(=O)(O)O)C(C)(C)C(F)(F)F")
1908

###

assay: PBS Stability Assay; assay type: physicochemical; conditions: buffer, pH 7.4, 2 μM, phosphate buffered saline pH 7.4; read-out: PBS T½
recorded-endpoint: half-life at 2 μM (min)

>>> recorded_measurement("COC(=O)N[C@H](C(=O)N[C@@H](Cc1ccc(C#Cc2cnc(N3CC4CCC(C3)N4C3COC3)nc2)cc1)[C@H](CN(Cc1c(F)cc(-c2ccn(C(F)F)n2)cc1F)NC(=O)[C@@H](NC(=O)OC)C(C)(C)C(F)(F)F)OC(=O)OCOC(=O)CC(C)(C)c1c(CC(=O)NC(C)(C)CCC(=O)O)cc(C)cc1OP(=O)(O)O)C(C)(C)C(F)(F)F [Example 73]")
382
>>> recorded_measurement("COC(=O)N[C@H](C(=O)N[C@@H](Cc1ccc(C#Cc2cnc(N3CC4CCC(C3)N4C3COC3)nc2)cc1)[C@H](CN(Cc1c(F)cc(-c2ccn(C(F)F)n2)cc1F)NC(=O)[C@@H](NC(=O)OC)C(C)(C)C(F)(F)F)OC(=O)CC(C)(C)c1c(CC(=O)N[C@@H](C)C(=O)O)cc(C)cc1OP(=O)(O)O)C(C)(C)C(F)(F)F [Example 98]")
388
>>> recorded_measurement("COC(=O)N[C@H](C(=O)N[C@@H](Cc1ccc(C#Cc2cnc(N3CC4CCC(C3)N4C3COC3)nc2)cc1)[C@H](CN(Cc1c(F)cc(-c2ccn(C(F)F)n2)cc1F)NC(=O)[C@@H](NC(=O)OC)C(C)(C)C(F)(F)F)OC(=O)CC(C)(C)c1c(CC(=O)N[C@@H](Cc2ccc(C(=O)O)cc2)C(=O)O)cc(C)cc1OP(=O)(O)O)C(C)(C)C(F)(F)F [Example 45]")
284
>>> recorded_measurement("CC[C@H](C)[C@H](NC(=O)Cc1cc(C)cc(OP(=O)(O)O)c1C(C)(C)CC(=O)O[C@@H](CN(Cc1c(F)cc(-c2ccn(C(F)F)n2)cc1F)NC(=O)[C@@H](NC(=O)OC)C(C)(C)C(F)(F)F)[C@H](Cc1ccc(C#Cc2cnc(N3CC4CCC(C3)N4C3COC3)nc2)cc1)NC(=O)[C@@H](NC(=O)OC)C(C)(C)C(F)(F)F)C(=O)O [Example 96]")
260
>>> recorded_measurement("COC(=O)N[C@H](C(=O)N[C@@H](Cc1ccc(C#Cc2cnc(N3CC4CCC(C3)N4C3COC3)nc2)cc1)[C@H](CN(Cc1c(F)cc(-c2ccn(C(F)F)n2)cc1F)NC(=O)[C@@H](NC(=O)OC)C(C)(C)C(F)(F)F)OC(=O)OCOC(=O)CC(C)(C)c1c(CC(=O)N[C@@H](CC(N)=O)C(=O)O)cc(C)cc1OP(=O)(O)O)C(C)(C)C(F)(F)F [Example 72]")
367
>>> recorded_measurement("COC(=O)N[C@H](C(=O)N[C@@H](Cc1ccc(C#Cc2cnc(N3CC4CCC(C3)N4C3COC3)nc2)cc1)[C@H](CN(Cc1c(F)cc(-c2ccn(C(F)F)n2)cc1F)NC(=O)[C@@H](NC(=O)OC)C(C)(C)C(F)(F)F)OC(=O)CC(C)(C)c1c(CC(=O)N(CC(=O)O)CC(=O)O)cc(C)cc1OP(=O)(O)O)C(C)(C)C(F)(F)F [Example 106]")
271
>>> recorded_measurement("COC(=O)N[C@H](C(=O)N[C@@H](Cc1ccc(C#Cc2cnc(N3CC4CCC(C3)N4C3COC3)nc2)cc1)[C@H](CN(Cc1c(F)cc(-c2ccn(C(F)F)n2)cc1F)NC(=O)[C@@H](NC(=O)OC)C(C)(C)C(F)(F)F)OC(=O)CC(C)(C)c1c(CC(=O)N[C@@H](CS(=O)(=O)O)C(=O)O)cc(C)cc1OP(=O)(O)O)C(C)(C)C(F)(F)F [Example 32]")
311
>>> recorded_measurement("COC(=O)N[C@H](C(=O)N[C@@H](Cc1ccc(C#Cc2cnc(N3CC4CCC(C3)N4C3COC3)nc2)cc1)[C@H](CN(Cc1c(F)cc(-c2ccn(C(F)F)n2)cc1F)NC(=O)[C@@H](NC(=O)OC)C(C)(C)C(F)(F)F)OC(=O)CC(C)(C)c1c(CC(=O)N2C[C@@H](C(=O)O)C[C@H]2C(=O)O)cc(C)cc1OP(=O)(O)O)C(C)(C)C(F)(F)F [Example 10]")
595
>>> recorded_measurement("COC(=O)N[C@H](C(=O)N[C@@H](Cc1ccc(C#Cc2cnc(N3CC4CCC(C3)N4C3COC3)nc2)cc1)[C@H](CN(Cc1c(F)cc(-c2ccn(C(F)F)n2)cc1F)NC(=O)[C@@H](NC(=O)OC)C(C)(C)C(F)(F)F)OC(=O)CC(C)(C)c1c(CC(=O)NCc2cccc(C(=O)O)c2)cc(C)cc1OP(=O)(O)O)C(C)(C)C(F)(F)F [Example 53]")
585
>>> recorded_measurement("COC(=O)N[C@H](C(=O)N[C@@H](Cc1ccc(C#Cc2cnc(N3CC4CCC(C3)N4C3COC3)nc2)cc1)[C@H](CN(Cc1c(F)cc(-c2ccn(C(F)F)n2)cc1F)NC(=O)[C@@H](NC(=O)OC)C(C)(C)C(F)(F)F)OC(=O)CC(C)(C)c1c(CC(=O)N(C)CCCC(=O)O)cc(C)cc1OP(=O)(O)O)C(C)(C)C(F)(F)F [Example 93]")
166
>>> recorded_measurement("COC(=O)N[C@H](C(=O)N[C@@H](Cc1ccc(C#Cc2cnc(N3CC4CCC(C3)N4C3COC3)nc2)cc1)[C@H](CN(Cc1c(F)cc(-c2ccn(C(F)F)n2)cc1F)NC(=O)[C@@H](NC(=O)OC)C(C)(C)C(F)(F)F)OC(=O)CC(C)(C)c1c(CC(=O)NCP(=O)(O)O)cc(C)cc1OP(=O)(O)O)C(C)(C)C(F)(F)F [Example 104]")
285
>>> recorded_measurement("COC(=O)N[C@H](C(=O)N[C@@H](Cc1ccc(C#Cc2cnc(N3CC4CCC(C3)N4C3COC3)nc2)cc1)[C@H](CN(Cc1c(F)cc(-c2ccn(C(F)F)n2)cc1F)NC(=O)[C@@H](NC(=O)OC)C(C)(C)C(F)(F)F)OC(=O)CC(C)(C)c1c(CC(=O)N[C@@H](CCS(=O)(=O)O)C(=O)O)cc(C)cc1OP(=O)(O)O)C(C)(C)C(F)(F)F [Example 33]")
342
